subject-of-test: Human Factor XIIa (Homo sapiens)
Construct: purchased Enzyme Research Laboratories
Sequence (P00748 373-615 limits assumed): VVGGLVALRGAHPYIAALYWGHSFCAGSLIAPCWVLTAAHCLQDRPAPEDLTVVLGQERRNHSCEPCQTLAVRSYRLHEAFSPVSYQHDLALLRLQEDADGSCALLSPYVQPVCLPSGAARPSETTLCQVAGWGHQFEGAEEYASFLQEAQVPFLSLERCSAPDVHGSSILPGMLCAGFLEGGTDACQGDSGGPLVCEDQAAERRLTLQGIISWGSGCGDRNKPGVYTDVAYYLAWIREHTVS
method: Factor XIIa inhibitory activity in vitro (fluorogenic substrate H-DPro-Phe-Arg-AFC)
Type: biochemical
condition-parameters: 25° C., class symbols, read-out: Human FXIIa IC50
result-type: IC50

>>> print(df.to_string())
                                        smi  value_reported
0  N=C(N)c1ccc(CNC(=O)[C@H](Cc2cccc3ccccc23)NC(=O)c2ccccn2)cc1       1 to 3 µM
1  C[C@H](NC(=O)[C@@H]1C=C(c2ccccc2)CN1)C(=O)NCc1ccc2c(N)nccc2c1      3 to 10 µM
2  Nc1nccc2cc(CNC(=O)C3(NC(=O)[C@H](N)CCc4ccccc4)CCC3)ccc12       1 to 3 µM
3  CCCn1ncc(C(=O)N[C@@H](Cc2ccc(F)c(F)c2)C(=O)NCc2ccc3c(N)nccc3c2)c1C     10 to 40 µM
4  CC(C)N[C@H](CCc1ccccc1)C(=O)N[C@@H](C)C(=O)NCc1ccc2[nH]cc(Cl)c2c1       1 to 3 µM

Q: IC50 lookup needed for `CC(C)N[C@H](CCc1ccccc1)C(=O)NCC(=O)NCc1ccc2c(N)nccc2c1` , thanks.
Result: 0.28 to 1 µM

Q: IC50 lookup needed for `CC(C)N[C@H](CCCCN1CCCCC1)C(=O)N[C@@H](Cc1ccc(F)c(F)c1)C(=O)NCc1cccs1` , thanks.
Result: 3 to 10 µM

====

subject-of-test: Human FXIa (Homo sapiens, UniProt P03951)
Construct: Human FXIa (Enzyme Research Laboratories) was incubated; purchased Enzyme Research Laboratories
Sequence (P03951 388-625 limits assumed): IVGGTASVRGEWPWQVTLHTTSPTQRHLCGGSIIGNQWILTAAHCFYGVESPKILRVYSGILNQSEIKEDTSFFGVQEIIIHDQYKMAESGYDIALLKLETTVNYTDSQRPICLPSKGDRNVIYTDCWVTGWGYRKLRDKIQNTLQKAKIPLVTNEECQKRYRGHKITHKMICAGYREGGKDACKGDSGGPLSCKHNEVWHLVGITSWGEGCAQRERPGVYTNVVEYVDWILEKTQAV
Sequence (P03951 19-387 partner limits assumed): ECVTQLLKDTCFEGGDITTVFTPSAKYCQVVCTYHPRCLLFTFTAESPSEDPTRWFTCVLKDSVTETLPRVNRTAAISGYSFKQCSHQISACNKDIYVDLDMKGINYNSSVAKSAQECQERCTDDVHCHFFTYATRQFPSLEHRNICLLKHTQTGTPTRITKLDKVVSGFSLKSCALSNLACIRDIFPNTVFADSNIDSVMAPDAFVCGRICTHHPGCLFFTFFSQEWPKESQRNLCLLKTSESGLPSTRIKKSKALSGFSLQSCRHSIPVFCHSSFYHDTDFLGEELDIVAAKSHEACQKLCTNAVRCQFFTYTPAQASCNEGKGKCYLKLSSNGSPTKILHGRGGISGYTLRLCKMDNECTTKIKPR
method: FXIa inhibitory activity in vitro (fluorogenic substrate Z-Gly-Pro-Arg-AFC), selectivity
Assay type: biochemical
condition-parameters: category scale, 25° C.
Parameter IC50: see the listing below.

Observe how each entry below is paired with its result.
                                   molecule  value_reported
0  C[C@@H]1CCC[C@H](C)N1CC(=O)N1CC[C@H]1C(=O)NCc1ccc2c(N)nccc2c1     10 to 40 µM
1  Nc1nccc2cc(CNC(=O)[C@H]3CCC[C@@H]3NC(=O)[C@H](N)CCc3ccccc3)ccc12      3 to 10 µM
2  CC(C)N[C@H](COc1ccccc1)C(=O)N1CCC1C(=O)NCc1ccc2[nH]cc(Cl)c2c1 (some centres unmarked)     10 to 40 µM
3  CC(C)c1ccnc(C(=O)N[C@@H](Cc2ccc(F)c(F)c2)C(=O)NCc2ccc3c(N)nccc3c2)n1         > 40 µM
4  CC(C)N[C@H](CCCCN1Cc2ccccc2C1)C(=O)N1CC[C@H]1C(=O)NCc1ccc2[nH]cc(Cl)c2c1     10 to 40 µM

Q: IC50 lookup needed for `CC(C)N[C@H](CCCCN1CCCCC1)C(=O)N[C@@H](Cc1csc2ccccc12)C(=O)NCc1ccc2c(N)nccc2c1` , thanks.
Result: 1 to 3 µM

Q: IC50 lookup needed for `N[C@H](CCCCO)C(=O)N1CC[C@H]1C(=O)NCc1ccc2[nH]cc(Cl)c2c1` , thanks.
Result: > 40 µM

Q: IC50 lookup needed for `C[C@H](NC(=O)[C@H]1Cc2ccccc2CN1)C(=O)NCc1ccc2c(N)nccc2c1` , thanks.
Result: 3 to 10 µM

Q: IC50 lookup needed for `C[C@H](NC(=O)[C@H](N)CCc1ccncc1)C(=O)NCc1ccc2c(N)nccc2c1` , thanks.
Result: > 40 µM

Q: IC50 lookup needed for `CC(C)(O)C(=O)N1C[C@H](c2ccccc2)C[C@H]1C(=O)NCc1ccc2c(N)nccc2c1` , thanks.
Result: 10 to 40 µM

Q: IC50 lookup needed for `C[C@H](NC(=O)[C@H](N)CCc1ccccn1)C(=O)NCc1ccc2c(N)nccc2c1` , thanks.
Result: > 40 µM

Q: IC50 lookup needed for `CC(C)N[C@H](CCCCN1CCCCC1)C(=O)N1CC[C@H]1C(=O)NCc1ccc2[nH]cc(Cl)c2c1` , thanks.
Result: 10 to 40 µM

Q: IC50 lookup needed for `CC(C)N[C@H](CCCCN1CCCCC1)C(=O)N[C@@H](Cc1ccc(F)c(F)c1)C(=O)NCc1cccs1` , thanks.
Result: > 40 µM

Q: IC50 lookup needed for `CC(C)c1cc(C(=O)N[C@@H](Cc2ccc(F)c(F)c2)C(=O)NCc2ccc3c(N)nccc3c2)nc2ncnn12` , thanks.
Result: > 40 µM

Q: IC50 lookup needed for `CC(C)N[C@H](CCc1ccccc1)C(=O)N(C)[C@@H](C)C(=O)NCc1ccc2c(N)nccc2c1` , thanks.
Result: 3 to 10 µM

Q: IC50 lookup needed for `N[C@H](CCCCN1CCCCC1)C(=O)N[C@@H](Cc1ccc(F)c(F)c1)C(=O)NCc1cnc2[nH]cc(Cl)c2c1` , thanks.
Result: > 40 µM

Q: IC50 lookup needed for `COc1ccc(-n2ccc(C(F)(F)F)n2)c(CNC(=O)[C@H](C)NC(=O)[C@@H](N)CCc2ccccc2)c1F` , thanks.
Result: 1 to 3 µM

Q: IC50 lookup needed for `C[C@@H]1CCC[C@H](C)N1CC(=O)N1C[C@H]2[C@@H]([C@H]1C(=O)NCc1ccc3c(N)nccc3c1)C2(C)C` , thanks.
Result: > 40 µM

Q: IC50 lookup needed for `C[C@H](NC(=O)[C@H]1C[C@@H](c2ccccc2)CN1)C(=O)NCc1ccc2c(N)nccc2c1` , thanks.
Result: 3 to 10 µM

Q: IC50 lookup needed for `C[C@H](NC(=O)[C@H](N)CCCCN1CCCCC1)C(=O)NCc1ccc2c(N)nccc2c1` , thanks.
Result: 10 to 40 µM

Q: IC50 lookup needed for `Nc1nccc2cc(CNC(=O)[C@H](Cc3ccc(F)c(F)c3)NC(=O)CCCCCN3CCCCC3)ccc12` , thanks.
Result: > 40 µM

Q: IC50 lookup needed for `C[C@H](NC(=O)[C@H](N)CCc1ccccc1)C(=O)NCc1cnc2[nH]cc(Cl)c2c1` , thanks.
Result: 10 to 40 µM

Q: IC50 lookup needed for `CC(C)N[C@H](CCCCN1CCCCC1)C(=O)N[C@@H](C)C(=O)NCc1ccc2c(N)nccc2c1` , thanks.
Result: 10 to 40 µM

Q: IC50 lookup needed for `CC(C)N[C@H](CCCCN1CCCCC1)C(=O)N[C@@H](Cc1ccc(F)c(F)c1)C(=O)NCc1ccc2c(N)nccc2c1` , thanks.
Result: > 40 µM

Q: IC50 lookup needed for `Nc1nccc2cc(CNC(=O)C3(NC(=O)[C@H](N)CCc4ccccc4)CCC3)ccc12` , thanks.
Result: 10 to 40 µM

====

Parameter pIC50: see the listing below.
subject-of-test: Human Factor XIIa (Homo sapiens, UniProt P00748)
Construct: purchased Enzyme Research Laboratories
Sequence (P00748 373-615 limits assumed): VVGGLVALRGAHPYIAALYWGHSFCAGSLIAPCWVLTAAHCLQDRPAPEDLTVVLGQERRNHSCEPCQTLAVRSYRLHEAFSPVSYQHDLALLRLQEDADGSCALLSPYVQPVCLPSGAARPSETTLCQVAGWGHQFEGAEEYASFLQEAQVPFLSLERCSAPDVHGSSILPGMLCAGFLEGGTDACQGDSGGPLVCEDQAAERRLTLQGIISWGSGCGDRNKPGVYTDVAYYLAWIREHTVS
method: Factor XIIa inhibitory activity in vitro (fluorogenic substrate H-DPro-Phe-Arg-AFC)
Assay type: biochemical
condition-parameters: 25° C., class symbols, read-out: Human FXIIa IC50
pIC50: −log10 of the molar value.

                                        smi  value_reported
0  N=C(N)c1ccc(CNC(=O)[C@H](Cc2cccc3ccccc23)NC(=O)[C@H]2CCCN2)cc1    6.55 to 7.00
1  CNC(C)(C)C(=O)N1C[C@H](c2ccccc2)C[C@H]1C(=O)NCc1ccc2c(N)nccc2c1    5.00 to 5.52
2  CN(C)CC(=O)N[C@@H](Cc1ccc(F)c(F)c1)C(=O)NCc1ccc2c(N)nccc2c1    5.52 to 6.00

Lab note: next compound to report on.
Q: pIC50 lookup needed for `C[C@@H]1CCC[C@H](C)N1CC(=O)N[C@@H](Cc1ccc(F)c(F)c1)C(=O)NCc1ccc2[nH]ncc2c1` , thanks.
Result: 4.40 to 5.00

These entries and their values trace back to patent US20220298138A1.
